Attribution: ChEMBL document CHEMBL4152256

protocol summary: Genotoxicity in Salmonella typhimurium TA1535 harboring pSK1002 assessed as umu gene induction at 0.031 mg/ml in absence of Sprague-Dawley rat liver S9 fraction after by SOS/umu assay relative to control
Format: toxicity, organism-based
condition details: salmonella enterica subsp. enterica serovar typhimurium, read-out: FC
Classify: YES when fold induction at 0.031 mg/ml is strictly less than 1; NO when fold induction at 0.031 mg/ml is not.

molecule="OC(CCN1CCN(c2ccccc2C(F)(F)F)CC1)c1ccc(F)c2ccccc12 (stereo in doubt; 55)" label=YES
molecule="N#Cc1ccc(N2CCC(NCCC(O)c3ccc(F)c4ccccc34)CC2)c(C(F)(F)F)c1 (stereo in doubt; 72)" label=YES
molecule="OC(CCN1CCN(c2ccc(F)cc2)CC1)c1ccc(F)c2ccccc12 (stereo not given)" label=YES
molecule="N#Cc1ccc(C(O)CCN2CC=C(c3ccc(F)cc3)CC2)cc1 (stereo not given)" label=NO
molecule="O=[N+]([O-])c1ccccc1N1CCN(CCC(O)c2ccc(F)c3ccccc23)CC1 (stereo not given)" label=NO
molecule="COc1ccccc1C1=CCN(CCC(O)c2ccc(F)c3ccccc23)CC1 (stereo not given)" label=NO

Q) Criterion: fold induction at 0.031 mg/ml strictly below 1. Is it met by COC(=O)c1ccc(C(O)CCN2CC=C(c3ccc(F)cc3)CC2)cc1 (stereo not given) ?
A) YES

Q) Next molecule up: N#Cc1ccc(N2CCC(NCCC(O)c3ccc(F)c4ccccc34)CC2)c(Br)c1 (stereo not given)
A) NO

---

protocol summary: Genotoxicity in Salmonella typhimurium TA1535 harboring pSK1002 assessed as umu gene induction at 0.016 mg/ml in presence of Sprague-Dawley rat liver S9 fraction after by SOS/umu assay relative to control
Type: toxicity, organism-based
condition details: salmonella enterica subsp. enterica serovar typhimurium, read-out: FC
Reported fold induction at 0.016 mg/ml is given for each of the following compounds.
Simply state the number, no unit and no words.

compound="N#Cc1ccc(N2CCC(NCCC(O)c3ccc(F)c4ccccc34)CC2)c(Cl)c1 (stereo not given)" result=0.6
compound="COc1ccccc1N1CCN(CCC(O)c2ccc(F)c3ccccc23)CC1 (stereo not given)" result=1
compound="COc1ccccc1N1CCN(CCC(O)c2ccc(F)cc2)CC1 (stereo in doubt; 66)" result=1.1
compound="COc1ccccc1C1=CCN(CCC(O)c2ccc(F)cc2)CC1 (stereo not given)" result=1.2

Would you kindly look at the next entry?
Q) Would you kindly share the measured fold induction at 0.016 mg/ml for OC(CCN1CCN(c2ccccc2C(F)(F)F)CC1)c1ccc(F)c2ccccc12 (stereo in doubt; 55) ?
A) 1.1

---

protocol summary: Genotoxicity in Salmonella typhimurium TA1535 harboring pSK1002 assessed as survival at 0.002 mg/ml in absence of Sprague-Dawley rat liver S9 fraction after by SOS/umu assay relative to control
Type: toxicity, organism-based
condition details: salmonella enterica subsp. enterica serovar typhimurium, read-out: Survival
Reported viability at 0.002 mg/ml is given for each of the following compounds.
Only the number, expressed in %, is required.

compound="OC(CCN1CC=C(c2ccc(F)cc2)CC1)c1ccc2c(c1)OCO2 (stereo not drawn)" result=122

Would you kindly look at the next entry?
Q) Would you kindly share the measured viability at 0.002 mg/ml for COc1ccccc1N1CCN(CCC(O)c2ccc(F)c3ccccc23)CC1 (stereo not drawn) ?
A) 65.2

---

protocol summary: Cytotoxicity against human HepG2A16 cells by MTT assay
Format: cell-based
condition details: HepG2A16 cells
Reported CC50 is given for each of the following molecules.
Only the number, expressed in µM, is required.

molecule="Oc1ccc(C(O)CCN2CC=C(c3ccc(F)cc3)CC2)cc1 (stereo not drawn)" measured_property=CC50 unit_descriptor=µM result=253
molecule="OC(CCN1CCN(C(c2ccccc2)c2ccccc2)CC1)c1ccc(F)c(F)c1 (stereo not drawn)" measured_property=CC50 unit_descriptor=µM result=54.3
molecule="OC(CCN1CC=C(c2ccc(F)cc2)CC1)c1ccc(Cl)cc1 (stereo not drawn)" measured_property=CC50 unit_descriptor=µM result=110
molecule="COc1cc(NC(C)CCCN)c2ncccc2c1 (stereo not drawn)" measured_property=CC50 unit_descriptor=µM result=120
molecule="O=[N+]([O-])c1ccccc1N1CCN(CCC(O)c2ccc(F)c3ccccc23)CC1 (stereo not drawn)" measured_property=CC50 unit_descriptor=µM result=19.9

Q) Would you kindly share the measured CC50 for Nc1ccc(N2CCC(NCCC(O)c3ccc(F)c4ccccc34)CC2)c(C(F)(F)F)c1 (stereo not drawn) ?
A) 11

Q) Next molecule up: OC(CCN1CC=C(c2ccc(F)cc2)CC1)c1ccccc1 (stereo not drawn)
A) 121

Q) Next molecule up: OC(CCN1CCN(C(c2ccccc2)c2ccccc2)CC1)c1ccc(F)c(Cl)c1 (stereo not drawn)
A) 269

---

Reported fold induction at 0.008 mg/ml is given for each of the following compounds.
protocol summary: Genotoxicity in Salmonella typhimurium TA1535 harboring pSK1002 assessed as umu gene induction at 0.008 mg/ml in presence of Sprague-Dawley rat liver S9 fraction after by SOS/umu assay relative to control
Type: toxicity, organism-based
condition details: salmonella enterica subsp. enterica serovar typhimurium, read-out: FC

Below, 8 compounds whose answers are already recorded.
compound="OC(CCN1CCN(C(c2ccccc2)c2ccccc2)CC1)c1ccc(Br)cc1 (stereo unspecified)" result=0.9
compound="COc1ccccc1C1=CCN(CCC(O)c2ccc(F)cc2)CC1 (stereo unspecified)" result=1
compound="OC(CCN1CCN(c2ccccc2C(F)(F)F)CC1)c1ccc(F)cc1 (stereo unspecified)" result=1
compound="N#Cc1ccc(N2CCC(NCCC(O)c3ccc(F)c4ccccc34)CC2)c(Cl)c1 (stereo unspecified)" result=1.1
compound="OC(CCN1CCN(C(c2ccccc2)c2ccccc2)CC1)c1ccc(F)c2ccccc12 (stereo unspecified)" result=0.4
compound="O=[N+]([O-])c1ccccc1N1CCN(CCC(O)c2ccc(F)c3ccccc23)CC1 (stereo unspecified)" result=1
compound="OC(CCN1CCN(c2ccccc2C(F)(F)F)CC1)c1ccc(F)c2ccccc12 (stereo in doubt; 55)" result=0.2
compound="N#Cc1ccc(C(O)CCN2CC=C(c3ccc(F)cc3)CC2)cc1 (stereo unspecified)" result=1

Would you kindly look at the next entry?
Q) Would you kindly share the measured fold induction at 0.008 mg/ml for COc1ccccc1C1=CCN(CCC(O)c2ccc(F)c3ccccc23)CC1 (stereo unspecified) ?
A) 0.7

---

Reported fold induction at 0.125 mg/ml is given for each of the following compounds.
protocol summary: Genotoxicity in Salmonella typhimurium TA1535 harboring pSK1002 assessed as umu gene induction at 0.125 mg/ml in absence of Sprague-Dawley rat liver S9 fraction after by SOS/umu assay relative to control
Assay type: toxicity, organism-based
condition details: salmonella enterica subsp. enterica serovar typhimurium, read-out: FC

compound="OC(CCN1CCN(c2ccccc2C(F)(F)F)CC1)c1ccc(F)cc1 (stereo not given)" result=1.2

Q) Would you kindly share the measured fold induction at 0.125 mg/ml for COc1ccccc1C1=CCN(CCC(O)c2ccc(F)cc2)CC1 (stereo not given) ?
A) 1

Q) Next compound up: COc1ccccc1C1=CCN(CCC(O)c2ccc(F)c3ccccc23)CC1 (stereo not given)
A) 0.4

Q) Next compound up: OC(CCN1CCN(c2ccccc2C(F)(F)F)CC1)c1ccc(F)c2ccccc12 (stereo in doubt; 55)
A) 0.3

Q) Next compound up: COc1ccccc1N1CCN(CCC(O)c2ccc(F)cc2)CC1 (stereo in doubt; 66)
A) 0.9

---

Reported viability at 1 mg/ml is given for each of the following compounds.
protocol summary: Genotoxicity in Salmonella typhimurium TA1535 harboring pSK1002 assessed as survival at 1 mg/ml in absence of Sprague-Dawley rat liver S9 fraction after by SOS/umu assay relative to control
Format: toxicity, organism-based
condition details: salmonella enterica subsp. enterica serovar typhimurium, read-out: Survival
Only the number, expressed in %, is required.

compound="OC(CCN1CCN(c2ccccc2C(F)(F)F)CC1)c1ccc(F)cc1 (stereo not drawn)" result=244
compound="COc1ccccc1C1=CCN(CCC(O)c2ccc(F)cc2)CC1 (stereo not drawn)" result=82.3

Would you kindly look at the next entry?
Q) Would you kindly share the measured viability at 1 mg/ml for OC(CCN1CCN(c2ccccc2C(F)(F)F)CC1)c1ccc(F)c2ccccc12 (stereo in doubt; 55) ?
A) 229

---

protocol summary: Genotoxicity in Salmonella typhimurium TA1535 harboring pSK1002 assessed as survival at 0.125 mg/ml in absence of Sprague-Dawley rat liver S9 fraction after by SOS/umu assay relative to control
Type: toxicity, organism-based
condition details: salmonella enterica subsp. enterica serovar typhimurium, read-out: Survival
measured property: viability at 0.125 mg/ml (%)
Only the number, expressed in %, is required.

Below, 5 compounds whose answers are already recorded.
compound="OC(CCN1CCN(C(c2ccccc2)c2ccccc2)CC1)c1ccc(F)c(F)c1 (stereo unspecified)" measured_property="viability at 0.125 mg/ml" result=24.1
compound="Oc1ccc(C(O)CCN2CC=C(c3ccc(F)cc3)CC2)cc1 (stereo unspecified)" measured_property="viability at 0.125 mg/ml" result=112
compound="COc1ccccc1C1=CCN(CCC(O)c2ccc(F)cc2)CC1 (stereo unspecified)" measured_property="viability at 0.125 mg/ml" result=107
compound="COc1ccccc1C1=CCN(CCC(O)c2ccc(F)c3ccccc23)CC1 (stereo unspecified)" measured_property="viability at 0.125 mg/ml" result=114
compound="COc1ccccc1N1CCN(CCC(O)c2ccc(F)c3ccccc23)CC1 (stereo unspecified)" measured_property="viability at 0.125 mg/ml" result=55.9

Q) Would you kindly share the measured viability at 0.125 mg/ml for OC(CCN1CC=C(c2ccc(F)cc2)CC1)c1ccc2c(c1)OCO2 (stereo unspecified) ?
A) 116

Q) Next compound up: OC(CCN1CCN(c2ccccc2C(F)(F)F)CC1)c1ccc(F)cc1 (stereo unspecified)
A) 25.4

Q) Next compound up: N#Cc1ccc(N2CCC(NCCC(O)c3ccc(F)c4ccccc34)CC2)c(C(F)(F)F)c1 (stereo in doubt; 72)
A) 62.4

Q) Next compound up: OC(CCN1CCN(c2ccccc2C(F)(F)F)CC1)c1ccc(F)c2ccccc12 (stereo in doubt; 55)
A) 167

Q) Next compound up: O=[N+]([O-])c1ccccc1N1CCN(CCC(O)c2ccc(F)c3ccccc23)CC1 (stereo unspecified)
A) 174

Q) Next compound up: Nc1ccc(N2CCC(NCCC(O)c3ccc(F)c4ccccc34)CC2)c(C(F)(F)F)c1 (stereo unspecified)
A) 32.4
